Factor XIa IC50 for assorted binders
Molecular target: Factor XIa (Enzyme Research Laboratories) (human, UniProt P03951 19-625)
Sequence (P03951 19-625 limits assumed): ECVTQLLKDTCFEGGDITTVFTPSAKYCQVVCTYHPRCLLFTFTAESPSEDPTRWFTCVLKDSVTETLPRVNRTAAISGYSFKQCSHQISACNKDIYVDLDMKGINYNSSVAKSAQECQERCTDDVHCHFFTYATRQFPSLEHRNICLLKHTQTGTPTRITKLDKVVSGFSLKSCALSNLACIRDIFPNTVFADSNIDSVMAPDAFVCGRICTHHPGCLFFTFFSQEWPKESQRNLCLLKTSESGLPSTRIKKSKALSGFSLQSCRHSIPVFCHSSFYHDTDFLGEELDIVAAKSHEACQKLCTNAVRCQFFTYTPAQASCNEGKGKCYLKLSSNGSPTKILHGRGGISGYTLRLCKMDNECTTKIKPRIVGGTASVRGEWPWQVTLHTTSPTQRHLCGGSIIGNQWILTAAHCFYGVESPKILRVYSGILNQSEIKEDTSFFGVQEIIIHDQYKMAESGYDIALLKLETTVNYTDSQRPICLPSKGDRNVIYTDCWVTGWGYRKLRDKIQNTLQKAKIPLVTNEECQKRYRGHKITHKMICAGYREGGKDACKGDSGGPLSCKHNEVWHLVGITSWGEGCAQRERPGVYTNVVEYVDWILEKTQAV
Assay: cell-based or functional assay
Bridge positions count the residues as written; N and C are the ends. Square brackets hold non-standard residues; d marks the D form. Ends that are not written are not given here. * marks the point of attachment. mXylyl = xylyl linker from dibromoxylene joining the two cysteines; des‑NH2 = missing amino-terminal amine group; Phg = N[C@H](C(=O)O)c1ccccc1; Tle = CC(C)(C)[C@H](N)C(=O)O; NMeS = CN[C@@H](CO)C(=O)O; Heptanoyl = CCCCCCC(=O)*; Nva = CCC[C@H](N)C(=O)O

Ac-CASICRV-NH2 (linker 1-5 via mXylyl; not fully specified (residue 2); printed as [mXylyl(1,5)]Ac-C-a-SICRV-NH2) [R2047] = > 13.8 µM
[Nva]CEP[Phg]CR[Tle]-NH2 (linker 2-6 via mXylyl) [R2030] = > 10.4 µM
MCES[Phg]CRV-NH2 (linker 2-6 via mXylyl) [R2012] = > 8.3 µM
{des‑NH2}-CESICRV-NH2 (linker 1-5 via mXylyl; not fully specified (residue 1); printed as [mXylyl(1,5)](des-NH2)C-ESICRV-NH2) [R2051] = > 8.3 µM
Heptanoyl-CESICRV-NH2 (linker 1-5 via mXylyl) [R2041] = > 5.4 µM
MCE[NMeS]ICRV-NH2 (linker 2-6 via mXylyl) [R2019] = > 9.1 µM

# input Entry MCESICR[Tle]-NH2 (linker 2-6 via mXylyl) [R2010] : reported Factor XIa IC50 = ?
# output > 15 µM

# input Entry Ac-CESICRV-NH2 (linker 1-5 via mXylyl) [R2023] : reported Factor XIa IC50 = ?
# output > 12.1 µM
